Target: T1, PDZD2_2, O15018
T1 sequence (O15018 329-429, limits assumed, looked up): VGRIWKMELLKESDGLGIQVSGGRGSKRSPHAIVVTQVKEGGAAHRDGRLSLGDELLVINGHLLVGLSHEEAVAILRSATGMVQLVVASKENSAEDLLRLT
Assay: holdup assay
Parameters: key: below the threshold = too weak to quantify, mostly under pKd 3.1 to 4
Conditions: plain residues with an end cap or a label only (N-terminal biotin on a linker: ttds)

binder	pKd
IYVPEAQTRL [DLGAP4, Q9Y2H0]	below the threshold
GQDSREETQL [KCNT2, Q6UVM3]	below the threshold
TVASEKESVM [SLC1A5, Q15758]	below the threshold
